- TESTED TARGET: Human DYRK1A (Homo sapiens)
- Construct: purchased Invitrogen PV3997
- METHOD: DYRK1A Kinase TR-FRET (IMAP-Tb) Assay
- Format: biochemical
- MEASUREMENT CONDITIONS: TR-FRET (IMAP-Tb); ATP 70 μM; 37° C. 60 minutes; read-out: Enzyme IC50 (μM) DYRK1A
Structures can show the parent of a compound that is named as a salt.
log10 of IC50 values, listed per item
RECORDED METRIC: log10 of IC50 (log10 of the value in µM)

>  <COMPOUND>
CCOCCN(CCOCC)c1ncc2cc(C(=O)Nc3cc(C(=O)OC)ccc3Cl)c(=O)[nH]c2n1

>  <QUANTITATIVE READOUT>
-0.68

$$$$
>  <COMPOUND>
COc1ncc2cc(C(=O)Nc3cc(C(=O)N(C)Cc4cccc(Cl)c4)ccc3C)c(=O)[nH]c2n1

>  <QUANTITATIVE READOUT>
0.66

$$$$
>  <COMPOUND>
COc1ncc2cc(C(=O)Nc3cc(C(=O)NCC(C)C)ccc3Cl)c(=O)[nH]c2n1

>  <QUANTITATIVE READOUT>
-0.11

$$$$
>  <COMPOUND>
CSc1ncc2cc(C(=O)Nc3cc(C(=O)NC(CCN)c4ccccc4)ccc3Cl)c(=O)[nH]c2n1 (stereo not drawn) [Example 107, hydrochloride]

>  <QUANTITATIVE READOUT>
-2.33

$$$$
>  <COMPOUND>
NC1CCN(c2ncc3cc(C(=O)Nc4cc(C(=O)NC(CCO)c5ccccc5)ccc4Cl)c(=O)[nH]c3n2)CC1 (stereo not drawn) [Example 148, hydrochloride]

>  <QUANTITATIVE READOUT>
-0.82

$$$$
>  <COMPOUND>
CC(C)(O)CNc1ncc2cc(C(=O)Nc3cc(C(=O)NCc4cccc(Cl)c4)ccc3Cl)c(=O)[nH]c2n1

>  <QUANTITATIVE READOUT>
-1.65

$$$$
>  <COMPOUND>
O=C(NCc1cccc(Cl)c1)c1ccc(Cl)c(NC(=O)c2cc3cnc(NC4CCNCC4)nc3[nH]c2=O)c1 [Example 125, hydrochloride]

>  <QUANTITATIVE READOUT>
-1.52

$$$$
>  <COMPOUND>
COc1ncc2cc(C(=O)Nc3cc(C(=O)N[C@@H](CCO)c4ccccc4)ccc3Cl)c(=O)[nH]c2n1

>  <QUANTITATIVE READOUT>
0.59

$$$$
>  <COMPOUND>
O=C(NCc1cccc(Cl)c1)c1ccc(Cl)c(NC(=O)c2cc3cnc(NCCN4CCCC4)nc3[nH]c2=O)c1

>  <QUANTITATIVE READOUT>
-1.72

$$$$
>  <COMPOUND>
CCN(CC)CCOc1ncc2cc(C(=O)Nc3cc(C(=O)OC)ccc3Cl)c(=O)[nH]c2n1

>  <QUANTITATIVE READOUT>
-0.14

$$$$
>  <COMPOUND>
CC(C)(C)CNC(=O)c1ccc(Cl)c(NC(=O)c2cc3cnc(N4CCOCC4)nc3[nH]c2=O)c1

>  <QUANTITATIVE READOUT>
0.39

$$$$
>  <COMPOUND>
COc1ncc2cc(C(=O)Nc3cc(C(=O)NC(CN)C4CCCC4)ccc3Cl)c(=O)[nH]c2n1 (stereo not drawn)

>  <QUANTITATIVE READOUT>
-0.27

$$$$
>  <COMPOUND>
O=C(NCc1cccc(Cl)c1)c1ccc(Cl)c(NC(=O)c2cc3cnc(N[C@H]4CC[C@@H](O)CC4)nc3[nH]c2=O)c1

>  <QUANTITATIVE READOUT>
-1.59

$$$$
>  <COMPOUND>
CN1CCC(CCNc2ncc3cc(C(=O)Nc4cc(C(=O)NCc5cccc(Cl)c5)ccc4Cl)c(=O)[nH]c3n2)CC1

>  <QUANTITATIVE READOUT>
-1.65

$$$$
>  <COMPOUND>
COc1ncc2cc(C(=O)Nc3cc(C(=O)NCc4ccncc4)ccc3Cl)c(=O)[nH]c2n1

>  <QUANTITATIVE READOUT>
-0.60

$$$$

Where do these numbers come from? They come from patent US20120184542A1.
